tested on: UO-31 renal; experiment: NCI tumour cell line growth inhibition, 48 h
Where a SMILES comes first, the peptide text is derived from it. [ ]: non-standard residue; d: D form. The star is where a group is joined. ξ: configuration not given here. X37 = O=C(OCc1ccccc1)[C@@H]1CCC[C@H]1N*; Fmoc = O=C(OCC1c2ccccc2-c2ccccc21)*; ξW = NC(Cc1c[nH]c2ccccc12)C(=O)O; ξF = NC(Cc1ccccc1)C(=O)O; Boc = CC(C)(C)OC(=O)*; ξK = NCCCCC(N)C(=O)O; ξT = CC(O)C(N)C(=O)O; tBu = CC(C)(C)*
Please respond with reported TGI for every item in the list.

Q: Item O=C(NC(=S)NS(=O)(=O)c1ccc(N2N=C3c4ccccc4CC3C2c2cccs2)cc1)c1ccccc1 (stereo unspecified) has what recorded TGI?
A: > 100 µM

Q: // query: CCOC(=O)c1c(NC(=S)NCc2ccccc2)sc2c1CCN(C)C2
A: > 100 µM

Q: Another: O=C(CC1C(=O)Nc2ccccc2S1=O)Nc1cccc(Cl)c1 (stereo unspecified)
A: > 89.8 µM

Q: Also need O=C1c2cccnc2-c2nc(-c3ccc([N+](=O)[O-])cc3)cc3c2c1nc1ccccc13 , thanks.
A: > 66.1 µM

Q: Please answer likewise for CCOc1ccc2c(c1)/C(=C\C=C\C1CC(C)C3CC(OCC)CCC3N1CC)CC(C)N2CC (stereo unspecified)
A: 3.31 µM

Q: Same thing, different molecule: C=C1C(=O)OC2C(C)C3C=CC(=O)[C@@]3(C)C(OC(=O)/C(C)=C/C)C1[C@@H]2OC(C)=O (stereo partly specified)
A: 2.48 µM

Q: Repeat for the following molecule: COC(=O)c1ccc2c(c1)nc(-c1ccc(Cl)cc1)n2-c1cc(C(C)(C)C)[nH]n1
A: 44.1 µM

Q: Input Cc1c(Cl)cccc1NC(=O)C(=O)C1C(=O)NC(=O)NC1=O
A: > 100 µM

Q: Field entry: COc1cc(-c2ccc(-c3ccc(C(=N)N)s3)s2)cc(OC)c1OC
A: 3.54 µM

Q: Next up: Cc1c2cc[n+](C)cc2c(C)c2c1[nH]c1ccc(O)cc12
A: 86.8 µM

Q: Please answer likewise for O=C(O)/C(Cl)=C(/Cl)C(=O)Nc1cccc(Cl)c1
A: 37.4 µM

Q: Would you kindly repeat that for NC(=O)c1cc2ccccc2c(N=Nc2ccccc2)c1O ?
A: > 100 µM

Q: What do you get for NC12c3c4cccc3Oc3cccc(c31)Oc1cccc(c12)O4 ?
A: > 50 µM

Q: Similarly, CC(=O)O[C@H]1C(=O)[C@]2(C)[C@@H](OC(=O)OCC(O)CO)C[C@H]3OC[C@@]3(OC(C)=O)[C@H]2[C@H](OC(=O)c2ccccc2)[C@]2(O)C[C@H](OC(=O)[C@H](O)[C@@H](NC(=O)c3ccccc3)c3ccccc3)C(C)=C1C2(C)C (stereo partly specified) ?
A: > 100 µM

Q: // repeat for CCOc1ccc(NC(=O)C2=C(C)NC(C)=C(C(=O)Nc3ccc(OCC)cc3)C2c2ccc([N+](=O)[O-])cc2)cc1 and report
A: > 100 µM

Q: Then COC(=O)CCCc1ccc2c(c1)CCC2 ?
A: > 100 µM

Q: Also O=C(Nc1ccccc1Cl)c1ccc(NC2=C(Cl)C(=O)N(Cc3ccccc3)C2=O)cc1 , if possible.
A: > 100 µM

Q: Now the same for Brc1ccc(-c2ccc(-c3ccc(Br)s3)s2)s1
A: > 100 µM

Q: Also need Cn1cccc1-c1cc(-c2ccc(Br)cc2)nc(N)c1C#N , thanks.
A: > 100 µM

Q: For CC1CCN(c2nnc(Cl)cc2C(=O)c2ccccc2)CC1 then?
A: > 100 µM

Q: Also need COC(=O)c1oc2c(C(=O)/C=C/c3ccc(OC)cc3)c(OCCCN3CCCCC3)ccc2c1C , thanks.
A: 4.55 µM

Q: Cc1ccc(Nc2ncnc3sc(SCc4ccccc4)nc23)cc1 , same question.
A: > 100 µM

Q: Then what about the molecule CCN1C(=O)N(c2c(F)c(OC)cc(OC)c2F)Cc2cnc3[nH]c(CN4CCOCC4)cc3c21 ?
A: > 100 µM

Q: Repeat with CC1OC(OC2C(CO)OC(O[C@H]3CC[C@@]4(C)C(=CC[C@H]5[C@@H]6C[C@@H]7O[C@](O)(CC[C@@H](C)COC8OC(CO)C(O)C(O)C8O)[C@@H](C)[C@@H]7[C@@]6(C)CC[C@@H]54)C3)C(OC3OC(C)C(O)C(O)C3O)C2O)C(O)C(O)C1O (stereo partly specified)
A: 8.39 µM

Q: Query CC(CN(CP(=O)([O-])[O-])CP(=O)([O-])[O-])N(CP(=O)([O-])[O-])CP(=O)([O-])[O-].N[C@@H]1CCCC[C@@H]1N.[Pt+2] (stereo unspecified) next
A: > 100 µM

Q: # iterate: CC(C)(C)[Si](C)(C)OCC1OC(n2ccc(=O)[nH]c2=O)C(O[Si](C)(C)C(C)(C)C)/C1=N/O (stereo unspecified)
A: 14.5 µM

Q: Also, CC(OC(C)(C)C)C(NC(=O)C(CCCCNC(=O)OC(C)(C)C)NC(=O)C(Cc1c[nH]c2ccccc12)NC(=O)C(Cc1ccccc1)NC(=O)OCC1c2ccccc2-c2ccccc21)C(=O)NC(Cc1ccccc1)C(=O)N[C@@H]1CCC[C@H]1C(=O)OCc1ccccc1 (stereo partly specified) (Fmoc-[ξF][ξW][ξK](Boc)[ξT](tBu)[ξF]-X37) please.
A: > 100 µM

Q: What would you report for Nc1nc(Cl)nc2c1ncn2C1O[C@H](CO)[C@@H](O)[C@@H]1F (stereo partly specified) ?
A: 1.24 µM

Q: Moving on to CC1=C(C(=O)Nc2ccc(F)c(Cl)c2)C(c2cccc(Cl)c2)NC(=O)N1 (stereo unspecified)
A: 38.1 µM

Q: What do you have for CC(=O)c1nc2ccccc2n1CC(=O)c1ccc([N+](=O)[O-])cc1 ?
A: 45.9 µM

Q: And for CCOc1ccc(N=NC2C(=O)N(C(=O)CC(=O)Nc3ccc(Cl)cc3)N=C2C)cc1 (stereo unspecified) ?
A: > 100 µM

Q: Moving on to the next molecule: CC(=O)C1=CC=C/C1=N\Nc1ccccc1
A: 25.8 µM

Q: Again, but for C/C=C/C1(NS(=O)(=O)c2ccc(C)cc2)CCC(C(C)(C)C)CC1 (stereo unspecified)
A: 62.3 µM

Q: Also, Cc1cccc(C)c1NC(=O)C(=O)C1C(=O)N(c2ccccc2)N=C1N (stereo unspecified) please.
A: > 100 µM

Q: Try Cc1cc2nc3c(C#N)c(-c4ccccc4)/c(=C\Nc4cccc(C(F)(F)F)c4)c(=O)n3c2cc1C next.
A: > 100 µM

Q: Next up: COc1ccc(NS(=O)C2CCCCC2)cc1 (stereo unspecified)
A: > 100 µM
